tested_on: Glycine N-methyltransferase (Homo sapiens) (UniProt Q14749)
Sequence (Q14749 whole entry, looked up): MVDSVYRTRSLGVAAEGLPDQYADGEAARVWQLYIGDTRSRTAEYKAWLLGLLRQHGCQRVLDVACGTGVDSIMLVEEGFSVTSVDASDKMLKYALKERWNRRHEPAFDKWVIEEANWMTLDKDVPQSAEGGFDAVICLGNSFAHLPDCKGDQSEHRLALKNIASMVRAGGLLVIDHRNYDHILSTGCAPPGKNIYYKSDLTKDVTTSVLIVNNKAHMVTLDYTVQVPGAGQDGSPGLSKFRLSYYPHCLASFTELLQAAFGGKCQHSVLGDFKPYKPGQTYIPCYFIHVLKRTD
experiment_notes: Primary Screen for Target Class Profiling of Small Molecule Inhibitors of Methyltransferases; further: on the % scale 0 is the no-effect control and ±100 the full control effect
condition_context: purified enzyme, MTase-Glo SAH luminescence; measured here: GNMT inhibition; at 40 µM; stronger effect = lower value
Hit rate of the full screen: of about 25,000 compounds, about 970 (3.9%) were called active. Another 8% or so got no clear call; they are omitted. Shown is part of a subset that was picked to be rich in actives.

molecule	activity change, negative = inhibition
O=C(CCn1ccc2cc(S(=O)(=O)N3CCCC3)ccc21)NCc1cccc(Cl)c1	-5.66%
COc1cc2ncnc(Nc3cccc(Cl)c3F)c2cc1OC(=O)N1CCN(C)C[C@H]1C	-14.7%
CCCS(=O)(=O)N1CCCC(Cn2c(C)nc3cccnc32)C1 (stereo not given)	-90.9%
CCC(CC)C(=O)NC[C@H]1O[C@@H](CC(=O)N2CCC(C)CC2)[C@H](O)[C@@H]1O	-5.41%
O=C1N2CCCC2CN1C1CCN(Cc2ccsc2)CC1 (stereo not given)	-1.71%
COc1ccccc1CCN1C(=O)c2ccc(-c3ccco3)n2CC1(C)C(=O)NC1CCCCCC1 (stereo not given)	-4.07%
CCCNC(=O)Cn1ccc2cc(S(=O)(=O)N3CCCCC3)ccc21	9.68%
CCCS(=O)(=O)N1CCCC(OCc2noc(C3CCOCC3)n2)C1 (stereo not given)	-4.75%
COc1cc2c(cc1O)NC(=O)CC2c1cn[nH]c1-c1cc(C)ccc1C (stereo not given)	-48.4%
CCCCCCc1cc2c(-c3ccccc3)cc(=O)oc2cc1OCC(N)=O	-9.86%

###

activity change, negative = inhibition values, listed per item
tested_on: Guanidinoacetate N-methyltransferase (Homo sapiens) (UniProt Q14353)
experiment_notes: Primary Screen for Target Class Profiling of Small Molecule Inhibitors of Methyltransferases; further: on the % scale 0 is the no-effect control and ±100 the full control effect
condition_context: purified enzyme, MTase-Glo SAH luminescence; measured here: GAMT inhibition; at 40 µM; stronger effect = lower value
Among all 25,000 compounds or so, about 970 (3.9%) were called active. Roughly 8% stayed inconclusive and do not appear here. The entries come from a sample that favours actives as a whole.
readout_name: activity change, negative = inhibition

molecule	readout_name	recorded_result
CCc1cccc(NC(=O)Cn2c(=O)oc3cc(S(=O)(=O)N4CCC(C)CC4)ccc32)c1	activity change, negative = inhibition	4.45%
COc1cc(NC(=O)Nc2cccc(CNC(=O)O[C@H]3CCOC3)c2)ccc1-c1cnco1	activity change, negative = inhibition	1.61%
O=C(NCc1ccc(Cl)cc1)c1cc(-c2ccc[nH]2)n[nH]1	activity change, negative = inhibition	-7.92%
CC1(C(=O)NC2CCCCC2)Cn2c(ccc2-c2ccccc2)C(=O)N1CCC1=CCCCC1 (centres undefined)	activity change, negative = inhibition	0.753%
O=C(Nc1ccccc1Cl)N1CCn2cccc2C1Cc1ccccc1 (centres undefined)	activity change, negative = inhibition	0%
O=c1c2ccccc2n2c(=O)n(Cc3cccc(F)c3)nc2n1CCc1ccccc1	activity change, negative = inhibition	-7.2%
O=C1N2CCCC2CN1C1CCN(Cc2ccsc2)CC1 (centres undefined)	activity change, negative = inhibition	0.192%
Cc1cc(C)c(S(=O)(=O)NCCc2nc(-c3ccc(Cl)cc3)n[nH]2)cc1C	activity change, negative = inhibition	3.01%
O=C(c1ccc(C(F)(F)F)cc1)N1CCC2(COc3ccncc3[S+](=O)([O-])N2)C1 (centres undefined)	activity change, negative = inhibition	-3.02%
